# IC50 annotations
# Test system: KRAS_G12C pERK
# METHOD: Cellular pERK HTRF assay (KRAS_G12C pERK assay)
# Format: cell-based, human
# MEASUREMENT_CONTEXT: KRAS G12C cells, 4 hours incubation with compound; read-out: G12C_pERK

>  <MOLECULE>
C=CC(=O)N1CCC(n2nnc3c(O[C@@H](C)[C@@H]4CCCN4C)nc4c(F)c(-c5cccc6cccc(C#N)c56)c(C)cc4c32)CC1 (single isomer, unassigned) [Example 11b]

>  <TESTED_SYSTEM>
KRAS_G12C pERK

>  <IC50>
≤ 50 nM

$$$$
>  <MOLECULE>
CN(C)C1(C)CN(c2nc3c(F)c(-c4ccc(F)c5cccnc45)c(C(F)(F)F)cc3c3c2nnn3[C@H]2CCN(C(=O)/C=C/CF)[C@H](CC#N)C2)C1 (single isomer, unassigned) [Example 1b]

>  <TESTED_SYSTEM>
KRAS_G12C pERK

>  <IC50>
50 to 100 nM

$$$$

Input: Quick one: IC50 of Cc1cc2c(nc(O[C@@H](C)[C@@H]3CCCN3C)c3nnn(C4CCN(C(=O)/C=C/CF)CC4)c32)c(F)c1-c1cccc2cccc(C#N)c12 (single isomer, unassigned) [Example 16b] ?
Output: ≤ 50 nM

Input: Also COc1c(C)cccc1-c1c(C(F)(F)F)cc2c(nc(N3CC(C)(N(C)C)C3)c3nnn([C@H]4CCN(C(=O)/C=C/CF)[C@H](CC#N)C4)c32)c1F (single isomer, unassigned) [Example 2b] ?
Output: 50 to 100 nM

Input: And for C[C@H](Oc1nc2c(F)c(-c3ccc(F)c4cccnc34)c(C(F)(F)F)cc2c2c1nnn2[C@H]1CCN(C(=O)/C=C/CF)[C@H](CC#N)C1)[C@@H]1CCCN1C (single isomer, unassigned) [Example 4b] ?
Output: ≤ 50 nM

Input: Same lookup for COC/C=C/C(=O)N1CC[C@H](n2nnc3c(N4CC(C)(N(C)C)C4)nc4c(Cl)c(-c5ccc(F)c6cccnc56)c(Cl)cc4c32)C[C@H]1CC#N (single isomer, unassigned) [Example 18b] , please.
Output: 100 to 1000 nM

Input: Follow-up entry: C=C(F)C(=O)N1CC[C@H](n2nnc3c(O[C@@H](C)[C@@H]4CCCN4C)nc4c(F)c(-c5c(F)ccc6cccnc56)c(C)cc4c32)C[C@H]1CC#N (single isomer, unassigned) [Example 27b]
Output: ≤ 50 nM
